B1: Chromodomain-helicase-DNA-binding protein 4, residues 365 to 417; numbered along this chain, Q14839 (parent)
chain: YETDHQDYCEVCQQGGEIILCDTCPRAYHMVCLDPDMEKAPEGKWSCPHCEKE

- Variants of: B1
- experimentalDetails: abundance fitness (aPCA) (normalised: wild type 0, dead -1); higher = more abundant; growth selection in yeast, the domain comes from the species named
- measurementParameters: Homo sapiens
propertyMeasured: abundance fitness

>  <variantAnnotation>
C21R

>  <reportedMeasurement>
-0.743

$$$$
>  <variantAnnotation>
G15N

>  <reportedMeasurement>
-0.328

$$$$
>  <variantAnnotation>
D4M

>  <reportedMeasurement>
0.299

$$$$
>  <variantAnnotation>
Y8N

>  <reportedMeasurement>
-0.13

$$$$
>  <variantAnnotation>
Y28W

>  <reportedMeasurement>
0.086

$$$$
>  <variantAnnotation>
D22W

>  <reportedMeasurement>
-0.219

$$$$
>  <variantAnnotation>
C32K

>  <reportedMeasurement>
-0.817

$$$$
>  <variantAnnotation>
M37T

>  <reportedMeasurement>
-0.329

$$$$
>  <variantAnnotation>
Q14F

>  <reportedMeasurement>
0.06

$$$$
>  <variantAnnotation>
G16C

>  <reportedMeasurement>
-0.32

$$$$
>  <variantAnnotation>
C12Y

>  <reportedMeasurement>
-1.07

$$$$
>  <variantAnnotation>
E38Q

>  <reportedMeasurement>
-0.19

$$$$
>  <variantAnnotation>
Q14H

>  <reportedMeasurement>
-0.23

$$$$
>  <variantAnnotation>
R26P

>  <reportedMeasurement>
-0.348

$$$$
>  <variantAnnotation>
A27E

>  <reportedMeasurement>
-0.672

$$$$
>  <variantAnnotation>
K39Y

>  <reportedMeasurement>
-0.077

$$$$
>  <variantAnnotation>
V11T

>  <reportedMeasurement>
0.195

$$$$
>  <variantAnnotation>
P25F

>  <reportedMeasurement>
0.079

$$$$
>  <variantAnnotation>
C9G

>  <reportedMeasurement>
-0.825

$$$$
>  <variantAnnotation>
Y28Q

>  <reportedMeasurement>
-0.395

$$$$
